Values were extracted from BindingDB's records for patent US20250313563.

Molecular target: Glycogen synthase kinase-3 alpha (Homo sapiens)
Sequence (P49840 whole entry): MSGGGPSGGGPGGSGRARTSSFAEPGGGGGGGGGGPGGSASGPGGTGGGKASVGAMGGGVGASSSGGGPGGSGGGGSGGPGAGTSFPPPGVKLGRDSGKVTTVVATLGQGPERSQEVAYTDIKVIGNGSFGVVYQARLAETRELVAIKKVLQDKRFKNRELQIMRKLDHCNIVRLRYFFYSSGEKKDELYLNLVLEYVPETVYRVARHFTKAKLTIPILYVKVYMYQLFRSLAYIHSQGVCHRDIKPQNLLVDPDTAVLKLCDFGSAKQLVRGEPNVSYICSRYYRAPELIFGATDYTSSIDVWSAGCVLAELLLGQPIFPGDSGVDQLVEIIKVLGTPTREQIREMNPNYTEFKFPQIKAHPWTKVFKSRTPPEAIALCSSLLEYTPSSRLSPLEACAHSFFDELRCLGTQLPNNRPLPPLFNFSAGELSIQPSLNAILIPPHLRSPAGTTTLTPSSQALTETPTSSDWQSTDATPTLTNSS
Recorded IC50 for the following compounds

What does the data say about its IC50? Entry: CCc1cccc(C2(CC)C3=C(N=NC3)NC3=C2C(=O)CC(C)(C)C3)c1 (stereo not drawn)
< 100 nM

Try the compound CC[C@]1(c2cccc(-c3ccncc3C)c2)C2=C(CC(C)(C)NC2=O)NC2N=NC(C(F)(F)F)=C21 (stereo partly drawn)
< 100 nM

Continue with CCC1(c2cccc(C3CN(C(C)=O)C3)c2)C2=CN=NC2NC2=C1C(=O)CC(C)(C)C2 (stereo not drawn)
1000 to 5000 nM

Cool, now CC[C@@]1(c2cccc(-c3cncn3C)c2)C2=CN=NC2NC2=C1C(=O)NC(C)(C)C2 (stereo partly drawn)
100 to 1000 nM

Do the same for CC1(C)CC(=O)C2=C(C1)NC1N=NC(C3(C(F)(F)F)CC3)=C1C21CCc2c(F)cccc21 (stereo not drawn) please
100 to 1000 nM

// same read-out, input: CC[C@]1(c2cccc(-c3cnn4c3CCCC4)c2)C2=C(CC(C)(C)NC2=O)NC2N=NC(C(F)(F)F)=C21 (stereo partly drawn)
100 to 1000 nM

Same read-out for CC1(C)CC(=O)C2=C(C1)NC1N=NC=C1[C@]21CCCN(S(=O)(=O)Cc2ccccc2)CC1 (stereo partly drawn) ?
100 to 1000 nM

Another compound to check: CC[C@@]1(c2cccc(N3CCOCC3)c2)C2=C(CC(C)(C)CC2=O)NC2N=NC(C)=C21 (stereo partly drawn)
100 to 1000 nM

***
Sample CCC1(c2cccc(-c3cn(C)nc3C)c2)C2=CN=NC2NC2=C1C(=O)NC1(CCS(=O)(=O)CC1)C2 (stereo not drawn) — what was its IC50?
< 100 nM

Next compound: `CC1(C)CC(=O)C2=C(C1)NC1=C(CN=N1)C21CN(S(=O)(=O)c2ccccc2F)C1`
100 to 1000 nM
